biological target: T1, human CD28, endogenously expressed on Jurkat/IL2 reporter cells (human, UniProt P10747 19-220); assay: flow cytometry, Jurkat/IL2 reporter cells (endogenous CD28), 33.3 nM Fc fusion, PE anti-human Fc
T1 construct: This is the endogenous CD28 of Jurkat cells
QUANTITY_MEASURED: MFI at 33.3 nM
In your response, put the unit directly after the numeric value.

Guide cases for MFI at 33.3 nM, answers given:
[[record]]
binder = "variant CD80 IgV-Fc E35D/D46E/M47V/L97Q (Fc fusion, not shown: a dimerising Fc or GST) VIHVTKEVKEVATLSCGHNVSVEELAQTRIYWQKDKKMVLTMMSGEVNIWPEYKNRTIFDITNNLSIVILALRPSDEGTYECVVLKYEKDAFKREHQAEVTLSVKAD"
observed_measurement = "371 MFI"

[[record]]
binder = "variant CD80 IgV-Fc E35D/M47V/T62A/A71G/V83A/Y87H/L97M (Fc fusion, not shown: a dimerising Fc or GST) VIHVTKEVKEVATLSCGHNVSVEELAQTRIYWQKDKKMVLTMMSGDVNIWPEYKNRTIFDIANNLSIVILGLRPSDEGTYECAVLKHEKDAFKREHMAEVTLSVKAD"
observed_measurement = "305 MFI"

[[record]]
binder = "variant CD80 IgV-Fc H18Y/Y31H/E35D/M47V/A71G/L85Q (Fc fusion, not shown: a dimerising Fc or GST) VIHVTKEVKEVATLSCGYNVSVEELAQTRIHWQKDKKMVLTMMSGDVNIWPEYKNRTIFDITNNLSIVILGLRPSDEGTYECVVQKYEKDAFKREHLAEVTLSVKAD"
observed_measurement = "268 MFI"

[[record]]
binder = "wild-type CD80 ECD-Fc (R&D Systems) (Fc fusion, This is a commercial protein; also called WT CD80 ECD-Fc (R&D); unmodified CD80-ECD-Fc fusion molecule; not shown: Bought protein (R&D Systems)) VIHVTKEVKEVATLSCGHNVSVEELAQTRIYWQKEKKMVLTMMSGDMNIWPEYKNRTIFDITNNLSIVILALRPSDEGTYECVVLKYEKDAFKREHLAEVTLSVKADFPTPSISDFEIPTSNIRRIICSTSGGFPEPHLSWLENGEELNAINTTVSQDPETELYAVSSKLDFNMTTNHSFMCLIKYGHLRVNQTFNWNTTKQEHFPDN"
observed_measurement = "7630 MFI"

[[record]]
binder = "variant CD80 IgV-Fc Q33L/E35D/M43V/M47I/A71G (Fc fusion, not shown: a dimerising Fc or GST) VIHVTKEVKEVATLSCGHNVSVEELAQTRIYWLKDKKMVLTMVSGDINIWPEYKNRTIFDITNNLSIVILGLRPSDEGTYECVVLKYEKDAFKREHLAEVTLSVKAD"
observed_measurement = "284 MFI"

[[record]]
binder = "variant CD80 IgV-Fc V22A/E35D/V68E/A71D (Fc fusion, not shown: a dimerising Fc or GST, The molecule is an Fc fusion, which the general text describes as a dimer) VIHVTKEVKEVATLSCGHNVSAEELAQTRIYWQKDKKMVLTMMSGDMNIWPEYKNRTIFDITNNLSIEILDLRPSDEGTYECVVLKYEKDAFKREHLAEVTLSVKAD"
observed_measurement = "14000 MFI"


The record that follows has no MFI at 33.3 nM shown yet.
// query MFI at 33.3 nM value for entry variant CD80 IgV-Fc Q33L/E35D/M47L/V68M/L85Q/E88D (Fc fusion, not shown: a dimerising Fc or GST) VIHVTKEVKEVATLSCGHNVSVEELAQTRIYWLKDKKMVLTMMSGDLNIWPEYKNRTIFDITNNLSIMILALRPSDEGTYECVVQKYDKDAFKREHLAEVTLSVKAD
264 MFI
